# System: COLO 205
# measurement.notes: NCI tumour cell line growth inhibition, 48 h
Active and inactive are the calls of the source. No stated cut-off is given here; in the data, active = GI50 up to about 1.1 µM and inactive = higher.
reported.property: GI50

Reference set, count: 3
molecule="C=C(C)CCC1CCCCC(CN(C)C)C1=O (centres undefined)" reported_property=GI50 experimental_result="> 100 µM (inactive)"
molecule=O=c1c2ccccc2nc(-c2ccccc2)n1O reported_property=GI50 experimental_result="> 100 µM (inactive)"
molecule=COc1ccc(/C=C2\N=C(c3ccccc3)N(Nc3nnc(NN4C(=O)/C(=C/c5ccc(OC)cc5)N=C4c4ccccc4)c4ccccc34)C2=O)cc1 reported_property=GI50 experimental_result="> 100 µM (inactive)"

stdin: Form field: reported GI50 of O=C(CC(C(=O)c1cccs1)c1cccs1)c1ccccc1Cl (centres undefined)
stdout: 54 µM (inactive)

Taken from ChEMBL document CHEMBL1201862.
